# STUDY TARGET: T1, M1′ peptide 4 (human)
# T1 peptide: SAQSQRAPDRVLCHS
# ASSAY NOTES: ELISA on coated antigen, relative OD450/650
EXPERIMENTAL ENDPOINT: binding result

murine anti-IgE/M1′ antibody 47H4 (antibody, V domains shown, mIgG1 hybridoma antibody; also called mu47H4; 47H4 mIgG1) VH: EVKLVESGGGLVQPGGSRKLSCAASGFTFSDYGMAWVRQAPGKGPEWVAFISDLAYTIYYADTVTGRFTISRENAKNTLYLEMSSLRSEDTALYYCARDNWDAMDYWGQGTSVTVSS VL: DIVLTQTPLSLPVSLGDQASISCRSSQSLVHNNGNTYLHWYLQKPGQSPKLLIYKVSNRFSGVPDRFSGSGSGTDFTLKISRLEAEDLGVYFCSQNTLVPWTFGGGTKVEIKR	binds
